# Assay Summary: chemical genetic growth profiling, strain panel (AID 1159580);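 note: tested at 20 µM; growth read once vehicle control cultures reached saturation at 30 °C; 1 = growth at the plate median or of vehicle wells; lower values mean less growth of the strain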
# Condition Set: S. cerevisiae deletion strains, growth OD, locus YPR167C, strain met16, active compounds read low
Screen size: about 5,500 compounds; about 2,000 (36%) were called active. Inconclusive results (about 18%) are left out. The list shows a part of the results.
Documented normalized growth across a set of compounds

- Compound: "O=C1c2cccc(O)c2C(=O)c2c(O)cccc21"
  normalized growth: 0.851
- Compound: "Oc1cccc2cccnc12"
  normalized growth: 0.0614
- Compound: "N[C@@H](C(=O)N[C@@H]1C(=O)N2C(C(=O)O)=C(Cl)CS[C@H]12)c1ccccc1"
  normalized growth: 1.02
- Compound: "COc1cc(O)c2c(c1)C(=O)c1cc(C)cc(O)c1C2=O"
  normalized growth: 0.999
- Compound: "CC1=C(C(=O)O)N2C(=O)[C@@H](NC(=O)[C@@H](N)c3ccc(O)cc3)[C@H]2SC1"
  normalized growth: 0.989
- Compound: "O=C(O)c1cc(=O)c2ccccc2[nH]1"
  normalized growth: 0.997
- Compound: "CN1CCCCC1c1ccc(-c2cccnc2)nc1 (centres undefined)"
  normalized growth: 0.999
- Compound: "O=C1C=CC(=O)c2c(O)cccc21"
  normalized growth: 1
- Compound: "CON"
  normalized growth: 0.984
- Compound: "CCCCCC/C=C\\CCCCCCCc1cccc(O)c1C(=O)O"
  normalized growth: 1
- Compound: "Cc1cc(O)c2c(c1)C(=O)c1cc(O)cc(O)c1C2=O"
  normalized growth: 0.708
- Compound: "CN1CCC[C@H]1c1cccnc1"
  normalized growth: 0.99
- Compound: "COP(=O)(NC(C)=O)SC (centres undefined)"
  normalized growth: 0.997
- Compound: "C=C(C)C1Cc2c(ccc(C(=O)O)c2O)O1 (centres undefined)"
  normalized growth: 0.963
- Compound: "COc1ccc(/C=C/c2cc(O)cc(O[C@@H]3O[C@H](CO)[C@@H](O)[C@H](O)[C@H]3O)c2)cc1"
  normalized growth: 0.992
- Compound: "O=C(/C=C/c1ccccc1)c1c(O)cc(O)cc1O"
  normalized growth: 0.998
- Compound: "O=C(/C=C/c1ccccc1)c1ccc(O[C@@H]2O[C@H](CO)[C@@H](O)[C@H](O)[C@H]2O)cc1O"
  normalized growth: 0.916
- Compound: "C=C[C@H]1CN2CC[C@H]1C[C@H]2[C@H](O)c1ccnc2ccccc12"
  normalized growth: 0.989
- Compound: "O=C(/C=C/c1ccc(O)cc1)c1ccc(O)cc1O"
  normalized growth: 0.966
- Compound: "O=C(O)CCC(=O)OC[C@@H](NC(=O)C(Cl)Cl)[C@H](O)c1ccc([N+](=O)[O-])cc1"
  normalized growth: 0.991
- Compound: "Cc1cc(O)c2c(c1)C(=O)c1cccc(O)c1C2=O"
  normalized growth: 0.998
- Compound: "CNC(=O)N(C)c1nnc(C(C)(C)C)s1"
  normalized growth: 1.03
- Compound: "C=C(C)C1Cc2c(ccc3c(=O)c4c(oc23)COc2cc(OC)c(OC)cc2-4)O1 (centres undefined)"
  normalized growth: 1.01
- Compound: "COc1ccc(NS(=O)(=O)c2ccc(N)cc2)nn1"
  normalized growth: 0.992
